FYI, the data here is from patent US20060264603A1.

biological target: T1, Plasmin; experiment: inhibition; method not described
T1 construct: Protease target in the specificity test
T1 sequence (P00747 97-580, chain 1 of 2): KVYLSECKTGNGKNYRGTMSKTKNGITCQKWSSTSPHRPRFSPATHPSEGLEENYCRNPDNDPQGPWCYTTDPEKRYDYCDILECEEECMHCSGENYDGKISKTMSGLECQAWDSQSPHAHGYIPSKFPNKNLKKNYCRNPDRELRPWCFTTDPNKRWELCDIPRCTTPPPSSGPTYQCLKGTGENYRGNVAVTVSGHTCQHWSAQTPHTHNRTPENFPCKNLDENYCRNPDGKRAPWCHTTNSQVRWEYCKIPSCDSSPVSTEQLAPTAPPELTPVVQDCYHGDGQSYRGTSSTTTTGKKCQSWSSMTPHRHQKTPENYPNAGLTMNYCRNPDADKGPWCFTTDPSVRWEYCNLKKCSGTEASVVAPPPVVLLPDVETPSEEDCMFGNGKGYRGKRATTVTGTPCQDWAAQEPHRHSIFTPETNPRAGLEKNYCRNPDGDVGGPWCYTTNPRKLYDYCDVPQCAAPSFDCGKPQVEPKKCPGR
T1 sequence (P00747 581-810, chain 2 of 2): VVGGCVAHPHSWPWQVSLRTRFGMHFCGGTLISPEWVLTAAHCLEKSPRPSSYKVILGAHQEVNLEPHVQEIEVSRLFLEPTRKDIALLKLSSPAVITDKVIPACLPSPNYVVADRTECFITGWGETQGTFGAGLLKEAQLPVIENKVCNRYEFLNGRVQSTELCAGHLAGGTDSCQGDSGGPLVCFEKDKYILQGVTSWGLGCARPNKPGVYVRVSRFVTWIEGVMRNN
pKi: −log10 of the molar value.

{"columns": ["Binder", "pKi"],
 "data": [
  ["KKII/3#6 (designed binder, LACI-K1 Kunitz domain variant) MHSFCAFKADDGHCKANHQRFFFNIFTRQCEEFSYGGCGGNQNRFESLEECKKMCTRD", 5.00]
]}
